Test system: monoclonal IgM HEA binding to gp120
Parameters: species or system human
Conditions: gp120 elisa
Threshold check on RESIDUAL BINDING TO gp120 (% OF CONTROL), 1.0 μM PEPTIDE: at or above 30 % OF CONTROL gives yes (1), strictly below gives no (0).

RQAHCNISRAKWNDTLRQIV [Peptide 1988, gp160 peptide 331-350, HIV-1 MN] = yes (1)
LKCNDKKFSGKGSCKNVSTV [Peptide 1959, gp160 peptide 231-250, HIV-1 MN] = no (0)
KGSCKNVSTVQCTHGIRPVV [Peptide 1960, gp160 peptide 241-260, HIV-1 MN] = no (0)
KWNDTLRQIVSKLKEQFKNK [Peptide 1989, gp160 peptide 341-360, HIV-1 MN] = yes (1)
KQIINMWQEVGKAMYAPPIE [Peptide 2007, gp160 peptide 421-440, HIV-1 MN] = yes (1)

Next sequence, please.
Check the entry MRVKGIRRNYQHWWGWGTM [Peptide 1919, gp160 peptide, amino acids 1-20, HIV-1 MN] : does RESIDUAL BINDING TO gp120 (% OF CONTROL), 1.0 μM PEPTIDE equal or exceed 30 % OF CONTROL? yes (1)

* * *

Tested on: monoclonal IgM RSJ binding to gp120
Set-up: species or system human
Conditions: gp120 elisa
# reported RESIDUAL BINDING TO gp120 (% OF CONTROL), 1.0 μM PEPTIDE; entries follow
Could you give the number and then its unit, please?

Known results for sequences:
LKCNDKKFSGKGSCKNVSTV [Peptide 1959, gp160 peptide 231-250, HIV-1 MN] = 40.5 ± 8.2 % OF CONTROL
RQAHCNISRAKWNDTLRQIV [Peptide 1988, gp160 peptide 331-350, HIV-1 MN] = 20.3 ± 1.5 % OF CONTROL
MRVKGIRRNYQHWWGWGTM [Peptide 1919, gp160 peptide, amino acids 1-20, HIV-1 MN] = 11.1 ± 1.5 % OF CONTROL
EGTIKGGEMKNCSFNITTSI [Peptide 1934, gp160 peptide 151-170, HIV-1 MN] = 13.9 ± 0.3 % OF CONTROL

Field request: RESIDUAL BINDING TO gp120 (% OF CONTROL), 1.0 μM PEPTIDE | item: YTTKNIIGTIRQAHCNISRA [Peptide 1987, gp160 peptide 321-340, HIV-1 MN] 56.8 ± 0.3 % OF CONTROL

Field request: RESIDUAL BINDING TO gp120 (% OF CONTROL), 1.0 μM PEPTIDE | item: KQIINMWQEVGKAMYAPPIE [Peptide 2007, gp160 peptide 421-440, HIV-1 MN] 24.1 ± 0.1 % OF CONTROL

Field request: RESIDUAL BINDING TO gp120 (% OF CONTROL), 1.0 μM PEPTIDE | item: KGSCKNVSTVQCTHGIRPVV [Peptide 1960, gp160 peptide 241-260, HIV-1 MN] 10.2 ± 2.4 % OF CONTROL

* * *

System: monoclonal IgM RSJ binding to gp120
Set-up: species or system human
Details: gp120 elisa
Quantity Name: RESIDUAL BINDING TO gp120 (% OF CONTROL), 10.0 μM PEPTIDE
Express your answer in % OF CONTROL, writing the number without its unit.

Known results for sequences:
MRVKGIRRNYQHWWGWGTM [Peptide 1919, gp160 peptide, amino acids 1-20, HIV-1 MN] = 1.3
RQAHCNISRAKWNDTLRQIV [Peptide 1988, gp160 peptide 331-350, HIV-1 MN] = 13.5
KQIINMWQEVGKAMYAPPIE [Peptide 2007, gp160 peptide 421-440, HIV-1 MN] = 3.1
LKCNDKKFSGKGSCKNVSTV [Peptide 1959, gp160 peptide 231-250, HIV-1 MN] = 17.2
KGSCKNVSTVQCTHGIRPVV [Peptide 1960, gp160 peptide 241-260, HIV-1 MN] = 4.2

Field request: RESIDUAL BINDING TO gp120 (% OF CONTROL), 10.0 μM PEPTIDE | item: YTTKNIIGTIRQAHCNISRA [Peptide 1987, gp160 peptide 321-340, HIV-1 MN] 42.2

* * *

Tested on: monoclonal IgM VNG binding to gp120
Set-up: species or system human
Details: gp120 elisa
Friendly reminder: RESIDUAL BINDING TO gp120 (% OF CONTROL), 10.0 μM PEPTIDE below 30 % OF CONTROL is true (1), at or above is false (0).

Worked set:
MRVKGIRRNYQHWWGWGTM [Peptide 1919, gp160 peptide, amino acids 1-20, HIV-1 MN] = true (1)
CTRPNYNKRKRIHIGPGRAF [Peptide 1985, gp160 peptide 301-320, HIV-1 MN] = true (1)
LKCNDKKFSGKGSCKNVSTV [Peptide 1959, gp160 peptide 231-250, HIV-1 MN] = true (1)
TKAKRRVVQREKRAAIGALP [Peptide 2015, gp160 peptide 501-520, HIV-1 MN] = false (0)

Next sequence, please.
RESIDUAL BINDING TO gp120 (% OF CONTROL), 10.0 μM PEPTIDE under 30 % OF CONTROL? Item: KGSCKNVSTVQCTHGIRPVV [Peptide 1960, gp160 peptide 241-260, HIV-1 MN] false (0)

* * *

System: monoclonal IgM VIN binding to gp120
Set-up: species or system human
Conditions: gp120 elisa
# reported RESIDUAL BINDING TO gp120 (% OF CONTROL), 1.0 μM PEPTIDE; entries follow

Known results for sequences:
RQAHCNISRAKWNDTLRQIV [Peptide 1988, gp160 peptide 331-350, HIV-1 MN] = 12.4 ± 0.6 % OF CONTROL
GKAMYAPPIEGQIRCSSNIT [Peptide 2008, gp160 peptide 431-450, HIV-1 MN] = 108 ± 4.3 % OF CONTROL
MRVKGIRRNYQHWWGWGTM [Peptide 1919, gp160 peptide, amino acids 1-20, HIV-1 MN] = 28.1 ± 5.0 % OF CONTROL
KWNDTLRQIVSKLKEQFKNK [Peptide 1989, gp160 peptide 341-360, HIV-1 MN] = 96.6 ± 6.1 % OF CONTROL

GET /values?readout=RESIDUAL BINDING TO gp120 (% OF CONTROL), 1.0 μM PEPTIDE&system=monoclonal IgM VIN binding to gp120&item= KQIINMWQEVGKAMYAPPIE [Peptide 2007, gp160 peptide 421-440, HIV-1 MN] 69.8 ± 4.2 % OF CONTROL

GET /values?readout=RESIDUAL BINDING TO gp120 (% OF CONTROL), 1.0 μM PEPTIDE&system=monoclonal IgM VIN binding to gp120&item= LKCNDKKFSGKGSCKNVSTV [Peptide 1959, gp160 peptide 231-250, HIV-1 MN] 12.6 ± 1.0 % OF CONTROL

GET /values?readout=RESIDUAL BINDING TO gp120 (% OF CONTROL), 1.0 μM PEPTIDE&system=monoclonal IgM VIN binding to gp120&item= TKAKRRVVQREKRAAIGALP [Peptide 2015, gp160 peptide 501-520, HIV-1 MN] 23.7 ± 3.4 % OF CONTROL

GET /values?readout=RESIDUAL BINDING TO gp120 (% OF CONTROL), 1.0 μM PEPTIDE&system=monoclonal IgM VIN binding to gp120&item= KGSCKNVSTVQCTHGIRPVV [Peptide 1960, gp160 peptide 241-260, HIV-1 MN] 6.2 ± 1.3 % OF CONTROL

* * *

Tested on: polyclonal serum IgM binding to gp120 from HIV-1SF2
Set-up: species or system human
Conditions: gp120 elisa
Friendly reminder: RESIDUAL BINDING TO gp120 (% OF CONTROL), 1.0 μM PEPTIDE below 40 % OF CONTROL is class 1, at or above is class 0.

Worked set:
KQIINMWQEVGKAMYAPPIE [Peptide 2007, gp160 peptide 421-440, HIV-1 MN] = class 0
MRVKGIRRNYQHWWGWGTM [Peptide 1919, gp160 peptide, amino acids 1-20, HIV-1 MN] = class 1
TKAKRRVVQREKRAAIGALP [Peptide 2015, gp160 peptide 501-520, HIV-1 MN] = class 0
LKCNDKKFSGKGSCKNVSTV [Peptide 1959, gp160 peptide 231-250, HIV-1 MN] = class 1
KGSCKNVSTVQCTHGIRPVV [Peptide 1960, gp160 peptide 241-260, HIV-1 MN] = class 1

Next sequence, please.
RESIDUAL BINDING TO gp120 (% OF CONTROL), 1.0 μM PEPTIDE under 40 % OF CONTROL? Item: KWNDTLRQIVSKLKEQFKNK [Peptide 1989, gp160 peptide 341-360, HIV-1 MN] class 0
